Origin of measurements: patent US20240166750A1

Reported Kd values for a set of binders
Target: Recombinant human FcγRIIIa-V158 (human, UniProt P08637 17-208)
Sequence (P08637 17-208 F176V): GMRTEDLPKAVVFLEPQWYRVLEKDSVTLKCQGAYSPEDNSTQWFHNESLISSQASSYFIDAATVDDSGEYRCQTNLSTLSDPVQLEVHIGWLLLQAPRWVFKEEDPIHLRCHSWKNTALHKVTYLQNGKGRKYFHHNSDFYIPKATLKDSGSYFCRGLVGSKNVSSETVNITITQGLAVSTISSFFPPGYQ
Test: SPR; +kif
Just the number in nM, nothing appended.

Binder	Kd (nM)
human IgG1 antibody specific for protein 4, S239D + R292C/V302C, +Kif (antibody) ASTKGPSVFPLAPSSKSTSGGTAALGCLVKDYFPEPVTVSWNSGALTSGVHTFPAVLQSSGLYSLSSVVTVPSSSLGTQTYICNVNHKPSNTKVDKKVEPKSCDKTHTCPPCPAPELLGGPDVFLFPPKPKDTLMISRTPEVTCVVVDVSHEDPEVKFNWYVDGVEVHNAKTKPCEEQYNSTYRCVSVLTVLHQDWLNGKEYKCKVSNKALPAPIEKTISKAKGQPREPQVYTLPPSRDELTKNQVSLTCLVKGFYPSDIAVEWESNGQPENNYKTTPPVLDSDGSFFLYSKLTVDKSRWQQGNVFSCSVMHEALHNHYTQKSLSLSPGK	8.97
human IgG1 antibody specific for protein 4, S239D + T256D/T307Q, +Kif (antibody) ASTKGPSVFPLAPSSKSTSGGTAALGCLVKDYFPEPVTVSWNSGALTSGVHTFPAVLQSSGLYSLSSVVTVPSSSLGTQTYICNVNHKPSNTKVDKKVEPKSCDKTHTCPPCPAPELLGGPDVFLFPPKPKDTLMISRDPEVTCVVVDVSHEDPEVKFNWYVDGVEVHNAKTKPREEQYNSTYRVVSVLQVLHQDWLNGKEYKCKVSNKALPAPIEKTISKAKGQPREPQVYTLPPSRDELTKNQVSLTCLVKGFYPSDIAVEWESNGQPENNYKTTPPVLDSDGSFFLYSKLTVDKSRWQQGNVFSCSVMHEALHNHYTQKSLSLSPGK	19.7

Let us move to another entry and its Kd.
(Q) Fill in: Kd of human IgG1 antibody specific for protein 4, S239D/S298A + R292C/V302C, +Kif (antibody) ASTKGPSVFPLAPSSKSTSGGTAALGCLVKDYFPEPVTVSWNSGALTSGVHTFPAVLQSSGLYSLSSVVTVPSSSLGTQTYICNVNHKPSNTKVDKKVEPKSCDKTHTCPPCPAPELLGGPDVFLFPPKPKDTLMISRTPEVTCVVVDVSHEDPEVKFNWYVDGVEVHNAKTKPCEEQYNATYRCVSVLTVLHQDWLNGKEYKCKVSNKALPAPIEKTISKAKGQPREPQVYTLPPSRDELTKNQVSLTCLVKGFYPSDIAVEWESNGQPENNYKTTPPVLDSDGSFFLYSKLTVDKSRWQQGNVFSCSVMHEALHNHYTQKSLSLSPGK is ___
(A) 8.76
